The entries below are paired with their reported inhibition at 20 µM.
# tgt: FL-CHK1 (Homo sapiens, UniProt O14757)
# Construct: C-terminally His-tagged full-length human CHK1 (FL-CHK1); 6xHis (C); made in house; host or cells: baculovirus/insect cells
# Sequence (O14757 whole entry): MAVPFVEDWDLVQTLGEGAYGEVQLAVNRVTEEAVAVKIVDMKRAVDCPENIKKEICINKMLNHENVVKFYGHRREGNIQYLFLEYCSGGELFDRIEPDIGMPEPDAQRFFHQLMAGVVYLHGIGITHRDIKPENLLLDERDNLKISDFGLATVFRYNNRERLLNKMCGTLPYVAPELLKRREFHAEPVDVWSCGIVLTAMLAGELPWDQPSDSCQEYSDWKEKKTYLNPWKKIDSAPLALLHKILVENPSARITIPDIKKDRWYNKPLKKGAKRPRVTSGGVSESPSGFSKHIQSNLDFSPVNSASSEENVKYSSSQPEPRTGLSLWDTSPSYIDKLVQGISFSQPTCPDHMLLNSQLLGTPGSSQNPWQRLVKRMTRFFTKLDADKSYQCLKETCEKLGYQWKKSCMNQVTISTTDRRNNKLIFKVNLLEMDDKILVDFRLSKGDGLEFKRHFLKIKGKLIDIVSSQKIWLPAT
# experiment-notes: CHK1 assay
# Format: biochemical
# protocol-conditions: 20 μM; combinatorial library compounds
# Excerpt: CHK-1 Construct for Assay: C-terminally His-tagged full-length human CHK1 (FL-CHK1) was expressed using the baculovirus/insect cell system. It contains 6 histidine residues (6×His-tag) at the C-terminus of the 476 amino acid human CHK1. The protein was purified by conventional chromatographic techniques. […]
reported-endpoint: inhibition at 20 µM

> print(dat)
                                    compound                                     tgt    reported.endpoint  result
 1  Nc1nc(Nc2ccc(S(N)(=O)=O)cc2)sc1-c1nc(-c2ccc(-c3ccccc3)cc2)cs1 [drawing 404]  FL-CHK1 (Homo sapiens, UniProt O14757)  inhibition at 20 µM   12.3%
 2  Nc1nc(Nc2ccc(S(N)(=O)=O)cc2)sc1-c1nc(-c2cc(-c3ccccc3)no2)cs1  FL-CHK1 (Homo sapiens, UniProt O14757)  inhibition at 20 µM   -1.2%
 3  CN(C)c1ccc(Nc2nc(N)c(-c3nc(-c4ccc(C#N)cc4)cs3)s2)cc1  FL-CHK1 (Homo sapiens, UniProt O14757)  inhibition at 20 µM    8.2%
 4  Cc1c(F)cc(-c2csc(-c3sc(Nc4ccc(S(N)(=O)=O)cc4)nc3N)n2)cc1Cl [drawing 440]  FL-CHK1 (Homo sapiens, UniProt O14757)  inhibition at 20 µM   21.1%
 5  Nc1nc(Nc2ccc(S(N)(=O)=O)cc2)sc1-c1nc(-c2cc(Br)c(Cl)s2)cs1  FL-CHK1 (Homo sapiens, UniProt O14757)  inhibition at 20 µM    7.9%
 6  COc1cc(OC)c(-c2csc(-c3sc(Nc4ccc(C(C)C)cc4)nc3N)n2)c(O)c1Cl  FL-CHK1 (Homo sapiens, UniProt O14757)  inhibition at 20 µM   38.9%
 7  Nc1nc(Nc2ccc(S(N)(=O)=O)cc2)sc1-c1nc(-c2ccc3oc4ccccc4c3c2)cs1  FL-CHK1 (Homo sapiens, UniProt O14757)  inhibition at 20 µM   18.3%
 8  CC(C)c1ccc(Nc2nc(N)c(-c3nc(-c4ccc5ccccc5c4)cs3)s2)cc1  FL-CHK1 (Homo sapiens, UniProt O14757)  inhibition at 20 µM   10.7%
 9  Nc1nc(Nc2ccc(S(N)(=O)=O)cc2)sc1-c1nc(-c2ccc(Cl)c(Cl)c2)cs1  FL-CHK1 (Homo sapiens, UniProt O14757)  inhibition at 20 µM   11.7%
10  Cc1c(F)cc(-c2csc(-c3sc(Nc4ccc(N(C)C)cc4)nc3N)n2)cc1Cl  FL-CHK1 (Homo sapiens, UniProt O14757)  inhibition at 20 µM     27%
11  Cc1cc(-c2csc(-c3sc(Nc4ccc(N(C)C)cc4)nc3N)n2)cc(C)c1O  FL-CHK1 (Homo sapiens, UniProt O14757)  inhibition at 20 µM   27.2%
12  COc1cccc(-c2csc(-c3sc(Nc4ccc(C(C)C)cc4)nc3N)n2)c1  FL-CHK1 (Homo sapiens, UniProt O14757)  inhibition at 20 µM    3.8%
13  COc1ccc2nc(-c3ccccc3)c(-c3csc(-c4sc(Nc5ccc(N(C)C)cc5)nc4N)n3)cc2c1  FL-CHK1 (Homo sapiens, UniProt O14757)  inhibition at 20 µM     26%
14  Cc1c(C)c(C)c(-c2csc(-c3sc(Nc4ccc(S(N)(=O)=O)cc4)nc3N)n2)c(C)c1C  FL-CHK1 (Homo sapiens, UniProt O14757)  inhibition at 20 µM     29%
15  Cc1cc(-c2csc(-c3sc(Nc4ccc(S(N)(=O)=O)cc4)nc3N)n2)cs1  FL-CHK1 (Homo sapiens, UniProt O14757)  inhibition at 20 µM   26.6%
16  Nc1nc(Nc2ccc(S(N)(=O)=O)cc2)sc1-c1nc(-c2ccc(-c3ccc(Cl)cc3Cl)o2)cs1  FL-CHK1 (Homo sapiens, UniProt O14757)  inhibition at 20 µM    3.3%
17  CCN(CC)c1ccc(-c2csc(-c3sc(Nc4ccc(C(C)C)cc4)nc3N)n2)cc1  FL-CHK1 (Homo sapiens, UniProt O14757)  inhibition at 20 µM   -5.3%
18  CC(C)c1ccc(Nc2nc(N)c(-c3nc(-c4ccc(Cl)c([N+](=O)[O-])c4)cs3)s2)cc1  FL-CHK1 (Homo sapiens, UniProt O14757)  inhibition at 20 µM   23.5%
